Reference for the values: PubChem BioAssay AID1845206

test system: NCI-H1618 multicellular tumor spheroid viability; assay: Anticancer human tumor NCI-H1618 cell line growth inhibition; settings: second compound 10 µM; first compound 0.316 µM; active compounds read low;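 note: spheroids exposed to agents for 7 days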
READOUT LABEL: viability, T/C (%)
A number alone suffices; assume %.

Request: # lookup: NCI-H1618 multicellular tumor spheroid viability viability, T/C, key = [2H]c1nc(C)nc([2H])c1-c1cc(NC[C@@H](C)c2cccc3c(C(=O)NC)ccnc23)ncn1 + Cn1nnc2c(C(N)=O)ncn2c1=O
Result: 5.87

Request: # lookup: NCI-H1618 multicellular tumor spheroid viability viability, T/C, key = CC(C)n1c(=O)n(C)c2cnc3cc(F)c(-c4ccc(OCCCN5CCCCC5)nc4)cc3c21 + Cn1nnc2c(C(N)=O)ncn2c1=O
Result: 8.79

Request: # lookup: NCI-H1618 multicellular tumor spheroid viability viability, T/C, key = COc1ccc([C@@H](O)c2cc(-c3ncnc4cc(N5CCOCC5)ccc34)c(F)cc2Cl)nn1 + Cn1nnc2c(C(N)=O)ncn2c1=O
Result: 5.03

Request: # lookup: NCI-H1618 multicellular tumor spheroid viability viability, T/C, key = COc1cc(C)[nH]c(=O)c1CN1CCc2c(Cl)cc(C(OC)C3COC3)c(Cl)c2C1=O (stereo unspecified) + Cn1nnc2c(C(N)=O)ncn2c1=O
Result: 4.96

Request: # lookup: NCI-H1618 multicellular tumor spheroid viability viability, T/C, key = CC1COCCN1c1cc(-c2ccnn2C)c2ccnc(-c3ccn[nH]3)c2n1 (stereo unspecified) + Cn1nnc2c(C(N)=O)ncn2c1=O
Result: 1.48

Request: # lookup: NCI-H1618 multicellular tumor spheroid viability viability, T/C, key = Cc1cc(C)c(CNC(=O)c2cc(-c3ccc(CN4CCOCC4)cc3)cc3c2cnn3C2CCCC2)c(=O)[nH]1 + Cn1nnc2c(C(N)=O)ncn2c1=O
Result: 10.5
